Biological target: T1, mouse PTPRG ECD (amino acid residues 20-733 of mouse PTPRG) fused to hFc (mouse, UniProt Q05909 20-733)
T1 construct: Produced in-house; also called mPTPRG-ECD; Mouse PTPRG-ECD-hFc; not shown: human Fc (hFc)
T1 sequence: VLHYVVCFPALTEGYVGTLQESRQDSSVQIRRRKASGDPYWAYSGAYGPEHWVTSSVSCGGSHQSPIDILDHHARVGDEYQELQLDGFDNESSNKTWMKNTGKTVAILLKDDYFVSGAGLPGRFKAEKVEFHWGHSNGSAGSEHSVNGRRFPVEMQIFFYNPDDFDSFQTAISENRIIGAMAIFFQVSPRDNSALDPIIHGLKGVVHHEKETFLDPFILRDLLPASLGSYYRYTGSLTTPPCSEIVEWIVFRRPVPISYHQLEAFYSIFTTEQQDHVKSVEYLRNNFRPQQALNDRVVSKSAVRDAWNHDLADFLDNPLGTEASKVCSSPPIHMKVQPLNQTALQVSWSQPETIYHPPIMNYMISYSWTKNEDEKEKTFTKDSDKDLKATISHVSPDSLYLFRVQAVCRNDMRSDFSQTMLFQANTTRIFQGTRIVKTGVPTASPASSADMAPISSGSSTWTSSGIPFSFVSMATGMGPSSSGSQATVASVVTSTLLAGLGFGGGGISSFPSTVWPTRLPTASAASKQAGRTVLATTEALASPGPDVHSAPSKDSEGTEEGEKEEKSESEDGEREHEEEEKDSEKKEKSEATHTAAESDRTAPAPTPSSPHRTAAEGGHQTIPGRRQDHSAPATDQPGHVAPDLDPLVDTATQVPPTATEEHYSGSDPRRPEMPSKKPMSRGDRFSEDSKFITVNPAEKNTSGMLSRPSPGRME
Assay: ELISA, one condition per Fab and antigen; y axis 0 to 1.8 without name or unit

binder	binding result
Fab_240 (Fab, V domains shown, Chimeric rabbit/human Fab; also called P240; clone 240) VH: AQSLEESGGRLVTPGTPLTLTCTVSGFSLSAYAMSWVRQAPGKGLEWIGIISSYGNTYYATWAKGRFTISKTSTTVDLKITSPTTEDTATYFCARGDYGNGMSIWGPGTLVTVSS VL: SFVLTQPASVQVNLGQTVSLTCTADTLSRRYASWYQQKPGQAPVLLIYRDTRRPSGVPDRFSGSSSGNTATLTISGAQAGDEADYYCATSDGSGSSYQCVFGGGTQLTVTG	binds
Fab_1955 (Fab, V domains shown, Chimeric rabbit/human Fab; also called P1955; clone 1955) VH: AQSLEESGGRLVTPGTPLTLTCTASGFSLYSYDMSWVRQAPGKGLEWIGLIDGGGNTYYASWAKGRFTISKTSSTTVDLKMTSLTTEDTATYFCARELWPAYSSGAFNIWGPGTLVTISS VL: SFVLTQPASVQVNLGQTVSLTCTADTLSRRYASWYQQKPGQAPVLLIYRDTRRPSGVPDRFSGSSSGNTATLTISGAQAGDEADYYCVTTDGSGSSYLVVFGGGTQLTVTG	binds
Fab_2861 (Fab, V domains shown, Chimeric rabbit/human Fab; also called P2861; clone 2861) VH: AQSVEESGGRLVTPGTPLTLTCTVSGIDLSSYAMGWVRQAPGKGLEYIGIIVSDGRTYYTSWAKGRFTISKTSTTVDLKMTSPTTEDTATYFCAREGYGYYFDIWGPGTLVTISS VL: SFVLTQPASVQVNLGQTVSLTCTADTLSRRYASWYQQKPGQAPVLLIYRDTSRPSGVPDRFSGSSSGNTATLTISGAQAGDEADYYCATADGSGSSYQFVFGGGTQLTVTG	binds
